Documented inhibition at 5 µM across a set of compounds
tgt: CK2α (Homo sapiens, UniProt P68400)
Construct: purchased Life Technologies (Invitrogen SelectScreen); Dyrk1A, Dyrk2 and CK2α in-house or gifts
Sequence (P68400 whole entry): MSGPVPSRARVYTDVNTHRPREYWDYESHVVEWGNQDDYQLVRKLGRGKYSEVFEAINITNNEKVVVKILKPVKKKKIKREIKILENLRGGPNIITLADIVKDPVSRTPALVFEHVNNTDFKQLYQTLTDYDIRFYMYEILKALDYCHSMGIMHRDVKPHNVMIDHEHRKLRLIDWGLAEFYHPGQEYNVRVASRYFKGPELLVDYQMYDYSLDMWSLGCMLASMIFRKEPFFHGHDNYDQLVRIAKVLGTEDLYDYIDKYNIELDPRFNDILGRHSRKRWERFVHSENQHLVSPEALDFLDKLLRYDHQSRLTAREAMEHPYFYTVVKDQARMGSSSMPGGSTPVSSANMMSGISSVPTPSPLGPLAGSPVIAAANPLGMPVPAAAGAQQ
runDescription: CK2α kinase assay (counter screen)
Format: biochemical
condition: read-out: percentage of inhibition CK2α

| smilesRepresentation | inhibition at 5 µM, % |
| --- | --- |
| c1cncc(-c2cc(-c3cnc4ccccn34)cs2)c1 | 0 |
| c1cncc(-c2csc(-c3cnco3)c2)c1 | 0 |
| COc1ccc(-c2csc(-c3cccnc3)c2)cn1 | 0 |
| Cn1cnc2cc(-c3csc(-c4cccnc4)c3)cnc21 | 7 |
| FC(F)(F)c1cncc(-c2csc(-c3cccnc3)c2)c1 | 0 |
| Nc1cc(-c2csc(-c3cccnc3)c2)cnc1Cl | 0 |
| NC(=O)c1cncc(-c2csc(-c3cccnc3)c2)c1 | 4.2 |
| Cc1ccc(-c2csc(-c3cccnc3)c2)cn1 | 0 |
| c1cncc(-c2csc(-c3cncc4ccccc34)c2)c1 | 3 |
| CC(=O)c1cncc(-c2csc(-c3cccnc3)c2)c1 | 0 |
| Cc1ccncc1-c1csc(-c2cccnc2)c1 | 0 |
| c1cncc(-c2cc(-c3ccncc3)cs2)c1 | 0 |
| c1ncc(-c2cc(-c3cn[nH]c3)cs2)o1 | -20 |
| c1cncc(-c2cc(-c3cncnc3)cs2)c1 | 0 |
| Cc1cncc(-c2csc(-c3cncnc3)c2)c1 | -15 |
| COC(=O)c1cncc(-c2csc(-c3cccnc3)c2)c1 | 14 |
| CCOc1cncc(-c2csc(-c3cccnc3)c2)c1 | 0 |
| c1cncc(-c2csc(-c3cccnc3)c2)c1 | 18.5 |
| Cc1cncc(-c2csc(-c3cnco3)c2)c1 | -15 |
| COc1cncc(-c2csc(-c3cccnc3)c2)c1 | 16 |
| c1cncc(-c2csc(-c3cncs3)c2)c1 | 0 |
| c1cncc(-c2cc(-c3cncs3)cs2)c1 | 0 |

====

Catalogue of inhibition at 5 µM values
tgt: Clk1 (Homo sapiens)
Sequence (P49759 whole entry): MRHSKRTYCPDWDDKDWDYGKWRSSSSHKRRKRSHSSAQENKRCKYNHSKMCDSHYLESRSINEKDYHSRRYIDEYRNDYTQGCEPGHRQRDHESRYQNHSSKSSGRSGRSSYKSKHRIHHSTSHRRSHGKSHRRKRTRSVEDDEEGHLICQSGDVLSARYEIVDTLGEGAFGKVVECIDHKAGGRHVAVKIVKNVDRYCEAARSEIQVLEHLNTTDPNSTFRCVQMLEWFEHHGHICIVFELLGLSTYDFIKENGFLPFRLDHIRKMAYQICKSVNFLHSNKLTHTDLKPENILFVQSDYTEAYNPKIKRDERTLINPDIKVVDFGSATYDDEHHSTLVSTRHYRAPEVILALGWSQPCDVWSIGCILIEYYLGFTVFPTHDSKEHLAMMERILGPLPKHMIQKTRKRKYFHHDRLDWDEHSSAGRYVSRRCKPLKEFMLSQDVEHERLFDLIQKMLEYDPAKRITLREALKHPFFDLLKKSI
runDescription: Clk1 kinase assay (RS repeat peptide)
Type: biochemical
condition: at 5 µM; read-out: % inhibition Clk1

| molecule | inhibition at 5 µM (%) |
| --- | --- |
| Cn1cc(-c2csc(-c3cccnc3)c2)cn1 [Compound 30] | 92 |
| c1cncc(-c2csc(-c3cncs3)c2)c1 [Compound 48] | 94 |
| c1cncc(-c2csc(-c3cncnc3)c2)c1 [Compound 41] | 86 |
| c1cncc(-c2csc(-c3cnco3)c2)c1 [Compound 33] | 88 |

====

tgt: ROS (Homo sapiens, UniProt P08922)
Construct: purchased Life Technologies (Invitrogen SelectScreen); Dyrk1A, Dyrk2 and CK2α in-house or gifts
Sequence (P08922 28-2347): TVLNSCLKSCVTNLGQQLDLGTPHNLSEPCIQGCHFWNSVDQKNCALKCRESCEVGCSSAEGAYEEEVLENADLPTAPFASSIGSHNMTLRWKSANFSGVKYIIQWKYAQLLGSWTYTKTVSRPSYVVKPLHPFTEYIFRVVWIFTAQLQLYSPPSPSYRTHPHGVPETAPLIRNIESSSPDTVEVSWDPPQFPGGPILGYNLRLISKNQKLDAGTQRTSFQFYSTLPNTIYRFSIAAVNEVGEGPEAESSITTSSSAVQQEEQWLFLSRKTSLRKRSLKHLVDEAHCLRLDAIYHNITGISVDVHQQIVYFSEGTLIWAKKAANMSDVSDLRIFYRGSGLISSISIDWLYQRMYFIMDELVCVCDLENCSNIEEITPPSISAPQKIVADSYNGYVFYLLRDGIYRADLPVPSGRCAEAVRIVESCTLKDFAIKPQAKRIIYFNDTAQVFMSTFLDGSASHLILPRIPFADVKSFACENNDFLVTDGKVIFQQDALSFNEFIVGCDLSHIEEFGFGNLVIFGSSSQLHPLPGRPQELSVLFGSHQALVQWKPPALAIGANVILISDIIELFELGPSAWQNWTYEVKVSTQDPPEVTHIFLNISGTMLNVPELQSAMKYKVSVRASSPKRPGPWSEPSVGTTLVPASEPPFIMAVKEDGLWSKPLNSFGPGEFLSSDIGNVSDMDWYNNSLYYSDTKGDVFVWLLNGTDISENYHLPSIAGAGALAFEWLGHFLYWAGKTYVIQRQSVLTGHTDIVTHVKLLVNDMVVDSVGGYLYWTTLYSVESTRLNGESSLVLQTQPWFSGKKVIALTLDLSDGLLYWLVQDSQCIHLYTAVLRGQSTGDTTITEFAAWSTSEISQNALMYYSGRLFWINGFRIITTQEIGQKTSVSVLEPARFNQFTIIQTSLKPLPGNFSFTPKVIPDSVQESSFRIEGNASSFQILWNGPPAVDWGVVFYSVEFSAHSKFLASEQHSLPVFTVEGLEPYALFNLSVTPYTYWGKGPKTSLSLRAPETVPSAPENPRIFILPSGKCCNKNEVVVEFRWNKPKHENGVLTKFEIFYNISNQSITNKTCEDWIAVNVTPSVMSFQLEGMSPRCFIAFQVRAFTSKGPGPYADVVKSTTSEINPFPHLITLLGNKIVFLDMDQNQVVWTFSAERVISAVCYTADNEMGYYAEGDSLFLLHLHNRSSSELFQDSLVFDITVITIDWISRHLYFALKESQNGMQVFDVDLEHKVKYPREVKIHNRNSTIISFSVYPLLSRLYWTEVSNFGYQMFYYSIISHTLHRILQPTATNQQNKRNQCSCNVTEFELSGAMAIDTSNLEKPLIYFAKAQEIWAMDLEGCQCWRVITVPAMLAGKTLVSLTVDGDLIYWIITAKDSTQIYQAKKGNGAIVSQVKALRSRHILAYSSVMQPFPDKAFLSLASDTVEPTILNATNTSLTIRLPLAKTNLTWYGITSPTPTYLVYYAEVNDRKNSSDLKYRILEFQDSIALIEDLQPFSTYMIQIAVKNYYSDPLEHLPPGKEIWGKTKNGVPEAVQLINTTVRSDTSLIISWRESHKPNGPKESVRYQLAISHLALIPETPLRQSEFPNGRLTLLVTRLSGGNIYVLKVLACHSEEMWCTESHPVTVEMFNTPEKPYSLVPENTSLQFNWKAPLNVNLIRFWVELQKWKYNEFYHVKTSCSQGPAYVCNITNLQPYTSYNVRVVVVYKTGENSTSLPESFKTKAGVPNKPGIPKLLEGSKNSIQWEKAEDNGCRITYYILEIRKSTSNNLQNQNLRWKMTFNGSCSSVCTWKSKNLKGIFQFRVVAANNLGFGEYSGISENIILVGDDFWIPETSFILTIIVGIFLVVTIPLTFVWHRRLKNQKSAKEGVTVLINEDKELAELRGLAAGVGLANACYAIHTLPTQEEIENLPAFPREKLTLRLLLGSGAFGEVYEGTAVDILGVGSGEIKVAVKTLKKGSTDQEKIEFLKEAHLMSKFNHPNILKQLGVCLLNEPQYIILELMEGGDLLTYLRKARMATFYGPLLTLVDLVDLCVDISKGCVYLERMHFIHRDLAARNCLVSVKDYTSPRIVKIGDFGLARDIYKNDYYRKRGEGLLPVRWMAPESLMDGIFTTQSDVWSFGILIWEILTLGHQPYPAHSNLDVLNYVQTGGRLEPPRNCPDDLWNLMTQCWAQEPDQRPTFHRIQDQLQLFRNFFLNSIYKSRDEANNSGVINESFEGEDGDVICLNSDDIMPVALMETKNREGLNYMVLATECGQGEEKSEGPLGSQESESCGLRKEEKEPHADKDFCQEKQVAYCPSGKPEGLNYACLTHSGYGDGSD
runDescription: Selectivity panel ROS
Type: biochemical
condition: 5 µM inhibitor
measuredMetric: inhibition at 5 µM (%)

| smilesRepresentation | measuredMetric | obsValue |
| --- | --- | --- |
| c1cncc(-c2cc(-c3cncs3)cs2)c1 | inhibition at 5 µM | 0 |
| c1cncc(-c2csc(-c3cnco3)c2)c1 | inhibition at 5 µM | 2 |
| c1cncc(-c2csc(-c3cncs3)c2)c1 | inhibition at 5 µM | 0 |
| c1cncc(-c2csc(-c3cncnc3)c2)c1 | inhibition at 5 µM | 0 |
| Cn1cc(-c2csc(-c3cccnc3)c2)cn1 | inhibition at 5 µM | 4 |

====

The compounds listed here are annotated with their pIC50.
tgt: Clk1 (Homo sapiens)
pIC50: −log10 of the molar value.
measuredMetric: pIC50

| smilesRepresentation | obsValue |
| --- | --- |
| c1cncc(-c2csc(-c3cncs3)c2)c1 | 6.96 |
| c1cncc(-c2csc(-c3cncnc3)c2)c1 | 6.21 |
